# measurementTarget: biotinylated (prokaryotic) IL-6 (Homo sapiens, UniProt P05231)
# Sequence (P05231 30-212): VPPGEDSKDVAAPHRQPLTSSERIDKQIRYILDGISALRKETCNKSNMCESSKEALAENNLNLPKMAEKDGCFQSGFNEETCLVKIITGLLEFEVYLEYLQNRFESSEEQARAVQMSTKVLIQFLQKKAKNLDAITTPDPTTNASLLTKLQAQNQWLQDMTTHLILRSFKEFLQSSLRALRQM
# testName: Surface plasmon resonance (Biacore), biotinylated IL-6 captured on streptavidin sensor chip
# Format: binding
# conditionDescription: purified Fab
Entries and their ka values follow.
Answer shape: numeric part, then the unit.

- molecule: "18C11: antagonistic IL-6-specific Fab clone from immunized llama (antibody, listed as Lama glama, V domains shown) VH: EVQLVESGGGLVQPGGSLRLSCAASGFTFSSYAMSWVRQAPGKGLEWVSAINSGGGSTSYADSVKGRFTISRDNAKNTLYLQMNSLKPEDTAVYYCAKEGDTGWKDPMYDYWGQGTQVTVSS VL: QSVVTQPSALSVTLGQTAKITCQGGGLRSSYAHWYQQKPGQAPVLVIYDDDSRPSGIPERFSGSSSGGRATLTISGAQAEDEGDYYCQSADSSGNAAVFGGGTHLTVLG"
  observedMeasurement: "55200 M⁻¹ s⁻¹"

Read the next record carefully.
Give its ka value. Item: 28C6: antagonistic IL-6-specific Fab clone from immunized llama (antibody, listed as Lama glama, V domains shown) VH: QVQLVESGGGLVQPGGSLRLSCAASGFTFSNYYMTWVRQAPGKGLEWVSSIYSFSGDTAYADSVKGRFTISRDNAKNTLYLQMNKLKSEDTAVYYCTRDLGGVVVTANGYDYWGQGTQVTVSS VL: DIVMTQTPSSLSASLGDRVTITCQASQSISTELSWYQQKPGQTPKLLIYGASRLQTGVPARFSGSGSGTSFTLTISGLEAEDLATYYCLQDYSWPYSFGSGTRL
101000 M⁻¹ s⁻¹
